Entry source: ChEMBL document CHEMBL3217610

target: Gamma-secretase (Homo sapiens) (UniProt Q96BI3+Q9NZ42+Q8WW43+P49768+Q92542+P49810); experiment: Selectivity ratio of IC50 for modulation of gamma-secretase (unknown origin) assessed as inhibition of amyloid beta 40 production to IC50 for modulation of gamma-secretase (unknown origin) assessed as inhibition of amyloid beta 42 production; type: protein-complex assay
readout-kind: Ratio IC50
Output spec: single numeric token, no unit.

Recorded Ratio IC50 (compound CC(=O)O[C@@H]([C@@H]1C[C@@H](C)[C@H]2[C@H](O1)[C@H](O)[C@@]1(C)[C@@H]3CC[C@H]4C(C)(C)[C@@H](OC(=O)C5CNC5)CC[C@@]45C[C@@]35CC[C@]21C)C(C)(C)O ): 24

Recorded Ratio IC50 (compound CC(=O)O[C@@H]([C@@H]1C[C@@H](C)[C@H]2[C@H](O1)[C@H](O)[C@@]1(C)[C@@H]3CC[C@H]4C(C)(C)[C@@H](OC(=O)CCC(=O)O)CC[C@@]45C[C@@]35CC[C@]21C)C(C)(C)O ): 11

Recorded Ratio IC50 (compound CC(=O)O[C@@H]([C@@H]1C[C@@H](C)[C@H]2[C@H](O1)[C@H](O)[C@@]1(C)[C@@H]3CC[C@H]4C(C)(C)[C@@H](OC(=O)Cc5ccccn5)CC[C@@]45C[C@@]35CC[C@]21C)C(C)(C)O ): 9

Recorded Ratio IC50 (compound CC(=O)O[C@@H]([C@@H]1C[C@@H](C)[C@H]2[C@H](O1)[C@H](O)[C@@]1(C)[C@@H]3CC[C@H]4C(C)(C)[C@@H](OC(=O)N5CCOCC5)CC[C@@]45C[C@@]35CC[C@]21C)C(C)(C)O ): 62
